- Tested on: Leishmania (L. major)
- EXPERIMENTAL_DETAILS: Leishmania protozoa proliferation inhibition assay
- Type: cell-based
- APPLIED_CONDITIONS: Table 3; sample concentration 2.97 mg/ml; 48 hours at 27° C.; absorbance 450 nm minus 630 nm
QUANTITY_NAME: OD level (number of viable Leishmania protozoa)

CCn1c(=Cc2cccc[n+]2C)sc(=C2Sc3ccc(Cl)cc3N2C)c1=O.Cc1ccc(S(=O)(=O)[O-])cc1 ... 0.081

# input for lookup
Task: Item C[C@@H]1[C@H](O)[C@@H](C)/C=C/C=C/C=C/C=C/C=C/C=C/C=C/[C@H](O[C@@H]2O[C@H](C)[C@@H](O)[C@H](N)[C@@H]2O)C[C@@H]2O[C@](O)(C[C@@H](O)C[C@@H](O)[C@H](O)CC[C@@H](O)C[C@@H](O)CC(=O)O[C@H]1C)C[C@H](O)[C@H]2C(=O)O [Amphotericin B, reference compound] : provide OD level (number of viable Leishmania protozoa)
Output: 0.029

* * *

- Tested on: Leishmania (L. major)
- EXPERIMENTAL_DETAILS: Leishmania protozoa proliferation inhibition assay
- Type: cell-based
- APPLIED_CONDITIONS: Table 2; sample concentration 0.025 mg/ml; 48 hours at 27° C.; absorbance 450 nm minus 630 nm
QUANTITY_NAME: OD level (number of viable Leishmania protozoa)

CN1/C(=c2\s/c(=C\c3cccc[n+]3C)n(Cc3ccccc3)c2=O)Sc2ccccc21.Cc1ccc(S(=O)(=O)[O-])cc1 ... 0.172
CCCC[n+]1ccccc1/C=c1\s/c(=C2/Sc3ccccc3N2C)c(=O)n1CC.[I-] ... 0.317
CCCC[n+]1ccc(/C=c2\s/c(=C3/Sc4ccccc4N3C)c(=O)n2CC)cc1.[Br-] ... 0.435

Task: Item `CCn1c(=O)/c(=C2\Sc3ccccc3N2C)s/c1=C\c1cccc[n+]1Cc1ccc(C(=O)O)cc1.[Br-]` : provide OD level (number of viable Leishmania protozoa)
Output: 0.384

Task: Item `CCn1c(=Cc2cc[n+](C)c3ccccc23)sc(=C2Sc3ccccc3N2C)c1=O.Cc1ccc(S(=O)(=O)[O-])cc1` : provide OD level (number of viable Leishmania protozoa)
Output: 0.409

meta.source: patent US20060252800A1
